Test system: Vero E6
Experiment: cell viability relative to DMSO; higher = less toxic
Settings: 72 h; 1000 nM
Would you kindly list cell viability for each of these compounds?
// note: answer is a bare numeric in %

[in] cell viability lookup needed for NC(=O)CC[C@H](NC(=O)Cc1ccccc1)C(=O)O , thanks.
[out] 100

[in] Please look up its cell viability: CC(C)(C)c1ccc(-c2nc3ccccc3[nH]2)cc1
[out] 92.7

[in] Returns the measured cell viability for the input compound. Input: CCC(C)n1ncn(-c2ccc(N3CCN(c4ccc(OCC5COC(Cn6cncn6)(c6ccc(Cl)cc6Cl)O5)cc4)CC3)cc2)c1=O (stereo not given)
[out] 87.9

[in] What value of cell viability has been recorded for this entry: CC(C)C[C@H](NC(=O)[C@@H](O)[C@H](N)Cc1ccccc1)C(=O)O
[out] 98.7

[in] Find the recorded cell viability belonging to C[C@@]1(CO)[C@H](O)CC[C@@]2(C)[C@H]1CC[C@H]1C[C@@H]3C[C@@]12CC[C@]3(O)CO and report it.
[out] 90.7

[in] Param item = CCC1(c2ccccc2)C(=O)NCNC1=O ; retrieve measured cell viability.
[out] 92.2

[in] Recorded cell viability for Fc1ccccc1CNCc1ccc(-c2ccnc3[nH]ccc23)cc1 , please?
[out] 97.6

[in] // lookup cell viability for CCOC(=O)[C@@H](N)Cc1ccc(O)c(O)c1
[out] 98.9

[in] Please look up its cell viability: C=CC(=O)Nc1cc(Nc2nccc(-c3c[nH]c4ccccc34)n2)c(OC)cc1N(C)CCN(C)C
[out] 49.7

[in] Recorded cell viability of NCCS(=O)(=O)O , please.
[out] 89.1

[in] Give its cell viability value. Item: COC(=O)[C@]12CCC(C)(C)C[C@H]1[C@H]1C(=O)C=C3[C@@]4(C)C=C(C#N)C(=O)C(C)(C)[C@@H]4CC[C@@]3(C)[C@]1(C)CC2
[out] 5.5

[in] Recorded cell viability of CC1CC(OC(=O)C(O)c2ccccc2)CC(C)(C)N1C (stereo not given) , please.
[out] 102

[in] Endpoint output: cell viability of OC(CCN1CCCCC1)(c1ccccc1)C1CCCCC1 (stereo not given) . Value?
[out] 98.9

[in] Request the reported cell viability associated with C[C@@H]1C/C=C/C=C/C=C/C=C/[C@H](O[C@@H]2O[C@H](C)[C@@H](O)[C@H](N)[C@@H]2O)C[C@@H]2O[C@](O)(C[C@@H](O)C[C@H]3O[C@@H]3/C=C/C(=O)O1)C[C@H](O)[C@H]2C(=O)O
[out] 88.7

[in] So what's the measured cell viability for this one? COc1ccc(-c2nc(N3CCOCC3)c3sc(CN(C)c4ncc(C(=O)NO)cn4)cc3n2)cn1
[out] -0.3

[in] I am curious: what cell viability value has been reported for CCNC(=O)Nc1ccc(-c2nc3c(c(N4CCOC[C@@H]4C)n2)CCN(C2COC2)C3)cc1 ?
[out] 81.2

[in] Consider the compound CCC(CC)n1ccc2c(C(=O)NCc3c(C)cc(C)[nH]c3=O)cc(C#N)cc21 and give its measured cell viability.
[out] 97.5

[in] Fill in: cell viability of O=C(Nc1ccccc1-c1cn2c(CN3CCNCC3)csc2n1)c1cnc2ccccc2n1 is ___
[out] 94.3

[in] Reported cell viability, compound CN1C(=O)N(c2cc(Cl)cc(Cl)c2)C(=O)[C@]12CN(c1ccc(C(=O)O)cn1)C[C@H]2c1ccc(C#N)cc1 : ____
[out] 93.7

[in] Quick one: cell viability for O=C1Nc2cc(Cl)c(Cl)cc2N2CCNC[C@H]12 ?
[out] 99.1

[in] Find the recorded cell viability belonging to CN1CCN(c2nc3ccccc3nc2Cl)CC1 and report it.
[out] 94.2

[in] Consider the compound shown here: CN1CCN(c2cccc(Nc3nc4c(-c5ccc(S(C)(=O)=O)cc5)cccn4n3)c2)CC1 What is its recorded cell viability?
[out] 96.3

[in] I'd like to know its cell viability. The compound in question is NS(=O)(=O)c1cc(Cl)c(Cl)c(S(N)(=O)=O)c1 [diclofenamide]
[out] 99.1

[in] GET /values?readout=cell viability&item= CN1c2ccccc2C(NCCCCCCC(=O)O)c2ccc(Cl)cc2S1(=O)=O (stereo not given)
[out] 94.1

[in] Can you share its cell viability? I mean this compound: O=C1c2cccc(O)c2C(=O)c2c(O)cc(CO)cc21
[out] 102

[in] Name the reported cell viability value associated with the compound O=C(O)CCc1ccc(NCc2cccc3c2CCCN3CCOc2ccccc2)cc1F
[out] 98.6

[in] Returns the measured cell viability for the input compound. Input: CN(C)c1ccc2c(c1)Sc1cc(N(C)C)ccc1N2
[out] 85.2

[in] What value of cell viability has been reported for the following compound? CCCN1CCCC(c2cccc(O)c2)C1 (stereo in doubt)
[out] 98.3

[in] Record request: cell viability value, item Clc1cccc(C(c2ccc3[nH]cnc3c2)n2ccnc2)c1 (stereo not given)
[out] 94.8

[in] State the recorded cell viability for this entry: N=C(N)NCCC[C@H](NC(=O)[C@@H]1CCCN1C(=O)[C@@H]1CSSC[C@H](N)C(=O)N[C@@H](Cc2ccc(O)cc2)C(=O)N[C@@H](Cc2ccccc2)C(=O)N[C@@H](CCC(N)=O)C(=O)N[C@@H](CC(N)=O)C(=O)N1)C(=O)NCC(N)=O
[out] 94

[in] Any idea what cell viability was measured for CC(=O)Nc1ccc(NC(=S)NC(=O)c2ccc(C(C)(C)C)cc2)cc1 ?
[out] 67.8

[in] cell viability lookup needed for CC[C@@H](c1ccc(F)c(F)c1)n1c(C(=O)OC)c(-c2ccno2)[nH]c1=S , thanks.
[out] 99.9

[in] Entry CC(C)[C@@H](C)/C=C/[C@@H](C)[C@H]1CC[C@H]2C3=CC=C4C[C@@H](O)CC[C@]4(C)[C@H]3CC[C@]12C has what cell viability?
[out] 102

[in] Report cell viability for CCCCN1CCCC1CNC(=O)c1cc(C#N)c2ccccc2c1OC (stereo not given) [nafadotride] please.
[out] 100

[in] Please report the recorded cell viability for CCOc1c(N2CCOCC2)cnn(C)c1=O .
[out] 96.2
